Source: patent US20250282776A1

- target.or.system: human TLR8 (hTLR8) (Homo sapiens)
- Sequence (Q9NR97 27-1041): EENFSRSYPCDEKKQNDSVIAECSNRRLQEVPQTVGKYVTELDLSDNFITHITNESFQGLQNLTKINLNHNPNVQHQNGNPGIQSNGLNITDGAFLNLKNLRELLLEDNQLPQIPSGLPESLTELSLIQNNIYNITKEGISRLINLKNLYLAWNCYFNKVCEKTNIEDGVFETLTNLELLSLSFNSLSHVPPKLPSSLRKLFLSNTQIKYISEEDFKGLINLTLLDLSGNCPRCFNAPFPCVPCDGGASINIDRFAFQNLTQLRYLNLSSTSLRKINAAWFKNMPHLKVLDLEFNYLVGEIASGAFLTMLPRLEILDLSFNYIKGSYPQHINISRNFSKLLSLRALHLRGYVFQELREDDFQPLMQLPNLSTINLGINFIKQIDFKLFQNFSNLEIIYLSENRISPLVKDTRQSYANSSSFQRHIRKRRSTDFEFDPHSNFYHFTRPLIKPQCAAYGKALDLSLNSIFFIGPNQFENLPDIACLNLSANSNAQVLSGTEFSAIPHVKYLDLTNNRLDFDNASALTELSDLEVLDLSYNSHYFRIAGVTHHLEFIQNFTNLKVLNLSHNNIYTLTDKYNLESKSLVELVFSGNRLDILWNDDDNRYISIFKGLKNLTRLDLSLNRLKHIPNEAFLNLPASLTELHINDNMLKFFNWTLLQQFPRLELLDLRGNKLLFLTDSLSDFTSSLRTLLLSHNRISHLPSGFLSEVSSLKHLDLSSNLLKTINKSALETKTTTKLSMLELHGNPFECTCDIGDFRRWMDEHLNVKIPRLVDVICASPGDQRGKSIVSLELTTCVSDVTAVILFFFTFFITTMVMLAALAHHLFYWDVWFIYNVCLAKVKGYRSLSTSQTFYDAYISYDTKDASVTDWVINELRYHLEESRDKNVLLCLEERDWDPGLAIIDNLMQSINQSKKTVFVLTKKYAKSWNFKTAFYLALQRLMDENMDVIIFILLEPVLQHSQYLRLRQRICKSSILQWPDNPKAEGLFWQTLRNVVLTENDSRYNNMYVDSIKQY
- procedure.details: Human TLR8 agonist activity assay (measured in a similar manner)
- run.parameters: HEK-Blue TLR cells, SEAP reporter, measured in a similar manner to TLR7; some values average of multiple measurements
property.name: EC50

| compound | target.or.system | property.name | measured.result |
| --- | --- | --- | --- |
| CCCCN(CCO)c1nc(N)nc2cn(Cc3ccc(CNC4CCOCC4)cc3C(F)F)nc12 | human TLR8 (hTLR8) (Homo sapiens) | EC50 | 1420 nM |
| CCCCN(CCO)c1nc(N)nc2cn(Cc3c(F)cc(C4CCN(C(C)C)CC4)cc3C#N)nc12 | human TLR8 (hTLR8) (Homo sapiens) | EC50 | 1830 nM |
| CCCCN(CCO)c1nc(N)nc2cn(Cc3ccc(CNC4CCOCC4)cc3)nc12 | human TLR8 (hTLR8) (Homo sapiens) | EC50 | 389 nM |
| CCCCN(CCO)c1nc(N)nc2cn(Cc3c(F)cc(C4=CCC(NC5CC6(COC6)C5)CC4)cc3OC)nc12 (centres unmarked) | human TLR8 (hTLR8) (Homo sapiens) | EC50 | 1600 nM |
| CCCCN(CCO)c1nc(N)nc2cn(Cc3ccc(CN[C@@H]4CCOC4)cc3)nc12 | human TLR8 (hTLR8) (Homo sapiens) | EC50 | 460 nM |
| CCCCN(CCO)c1nc(N)nc2cn(Cc3c(F)cc(C4CCN(CC(C)(C)O)CC4)cc3OC)nc12 | human TLR8 (hTLR8) (Homo sapiens) | EC50 | 525 nM |
| CCCCN(CCO)c1nc(N)nc2cn(Cc3ccc(CN[C@H]4CCOC[C@H]4C)cc3OC)nc12 | human TLR8 (hTLR8) (Homo sapiens) | EC50 | 542 nM |
| CCCCNCc1ccc(Cn2cc3nc(N)nc(N(CCO)CCCC)c3n2)c(OC)c1 | human TLR8 (hTLR8) (Homo sapiens) | EC50 | 477 nM |

----------
pEC50 by entry:
- target.or.system: human TLR7 (hTLR7) (Homo sapiens)
- Sequence (Q9NYK1 27-1049): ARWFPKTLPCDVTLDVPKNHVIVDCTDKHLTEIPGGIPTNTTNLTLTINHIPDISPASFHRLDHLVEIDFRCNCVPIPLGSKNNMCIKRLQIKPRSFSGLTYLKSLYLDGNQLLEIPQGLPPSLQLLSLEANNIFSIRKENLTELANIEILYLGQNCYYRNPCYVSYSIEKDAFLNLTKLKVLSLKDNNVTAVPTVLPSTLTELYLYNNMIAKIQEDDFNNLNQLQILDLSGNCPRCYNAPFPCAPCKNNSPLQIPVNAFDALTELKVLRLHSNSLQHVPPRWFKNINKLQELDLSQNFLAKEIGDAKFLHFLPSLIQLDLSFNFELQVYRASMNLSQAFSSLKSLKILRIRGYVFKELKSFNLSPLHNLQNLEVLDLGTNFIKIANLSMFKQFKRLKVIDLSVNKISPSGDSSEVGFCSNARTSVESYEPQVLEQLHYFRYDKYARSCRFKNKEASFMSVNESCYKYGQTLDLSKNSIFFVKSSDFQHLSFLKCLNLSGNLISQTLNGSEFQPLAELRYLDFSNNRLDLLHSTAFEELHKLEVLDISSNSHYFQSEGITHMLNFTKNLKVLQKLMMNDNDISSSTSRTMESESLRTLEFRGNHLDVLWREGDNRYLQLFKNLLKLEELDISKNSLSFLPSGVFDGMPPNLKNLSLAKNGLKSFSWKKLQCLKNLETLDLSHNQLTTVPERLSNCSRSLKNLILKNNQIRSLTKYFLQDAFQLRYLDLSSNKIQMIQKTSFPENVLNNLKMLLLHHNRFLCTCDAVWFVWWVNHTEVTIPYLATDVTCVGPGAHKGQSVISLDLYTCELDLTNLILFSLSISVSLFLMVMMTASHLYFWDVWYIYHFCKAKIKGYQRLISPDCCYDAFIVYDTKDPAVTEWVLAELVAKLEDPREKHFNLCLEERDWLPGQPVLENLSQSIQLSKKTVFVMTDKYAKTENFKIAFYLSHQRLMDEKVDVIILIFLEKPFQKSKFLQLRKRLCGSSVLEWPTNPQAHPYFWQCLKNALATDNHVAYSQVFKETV
- procedure.details: Human TLR7 agonist activity assay (HEK-Blue TLR7 SEAP reporter)
- run.parameters: HEK-Blue TLR7 cells, 18 h incubation, Quanti-Blue, OD 620 nm, some values average of multiple measurements
- Method: This procedure describes a method for assaying human TLR7 (hTLR7) and human TLR8 (hTLR8) agonist activity of the compounds disclosed herein. HEK-Blue™ TLR7 cells were added to each well of a 384-well tissue-culture plate (15,000 cells per well) and incubated 16-18 h at 37° C., 5% CO2. Compounds (100 nL) were dispensed into wells containing the HEK-Blue™ TLR cells and the treated cells were incubated at 37° C., 5% CO2. […] SLAP levels were measured using an Envision plate reader (OD=620 nm). […]
pEC50: −log10 of the molar value.

| compound | pEC50 |
| --- | --- |
| CCCCN(CCO)c1nc(N)nc2cn(Cc3c(F)cc(C4CCN(CCOC)CC4)cc3C#N)nc12 [Compound 149] | 6.25 |
| CCCCN(CCO)c1nc(N)nc2cn(Cc3c(F)cc(CNC4(CO)CC4)cc3OC)nc12 [Compound 91] | 5.91 |
| CCCCN(CCO)c1nc(N)nc2cn(Cc3ccc(CN[C@@H]4CCCN(C(=O)CN)C4)c4cccnc34)nc12 [Compound 198] | 5.88 |
| CCCCN(CCO)c1nc(N)nc2cn(Cc3c(F)cc(CN4CC5(COC5)C4)cc3OC)nc12 [Compound 83] | 6.29 |
| CCCCN(CCO)c1nc(N)nc2cn(Cc3ccc(CN[C@H]4CC[C@H](O)CC4)c4cccnc34)nc12 [Compound 169] | 5.96 |
| CCCCN(CCO)c1nc(N)nc2cn(Cc3ccc(CN4C[C@H]5COC[C@H]5C4)cc3OC)nc12 [Compound 11] | 6.14 |
| CCCCN(c1nc(N)nc2cn(Cc3c(F)cc(C4CCN(C5CC6(COC6)C5)CC4)cc3OC)nc12)C(C)CO (stereo not shown) [Compound 179] | 6.92 |

----------
- target.or.system: human TLR8 (hTLR8) (Homo sapiens)
- procedure.details: Human TLR8 agonist activity assay (measured in a similar manner)
- run.parameters: HEK-Blue TLR cells, SEAP reporter, measured in a similar manner to TLR7; some values average of multiple measurements
pEC50: −log10 of the molar value.
Mark Criterion not met for pEC50 values under 6, and Criterion met for everything at or above.

| molecule | category |
| --- | --- |
| CCCCN(CCO)c1nc(N)nc2cn(Cc3ccc(CN[C@H]4CC[C@H](CO)CC4)cc3C(F)F)nc12 [Compound 131] | Criterion not met |
| CCCCN(CCO)c1nc(N)nc2cn(Cc3cc(OC)c(C4CCN(C5CC6(COC6)C5)CC4)cc3OC)nc12 [Compound 109] | Criterion not met |
| CCCCN(CCO)c1nc(N)nc2cn(Cc3ccc(CN4CCN(C5CCC5)CC4)c4cccnc34)nc12 [Compound 60] | Criterion met |
| CCCCN(CCO)c1nc(N)nc2cn(Cc3ccc(CNCC4CC5(CCC5)C4)c4cccnc34)nc12 [Compound 67] | Criterion not met |
| CCCCN(CCO)c1nc(N)nc2cn(Cc3ccc(CN4CC5(C4)CN(C(C)C)C5)cc3OC)nc12 [Compound 30] | Criterion not met |
| COc1cc(CN[C@@H]2CCOC2)ccc1Cn1cc2nc(N)nc(N(CCO)CCCCF)c2n1 [Compound 173] | Criterion not met |
| CCCCN(CCO)c1nc(N)nc2cn(Cc3ccc(CN[C@@H]4CCOC4)cc3OC)nc12 [Compound 53] | Criterion met |
| CCCCN(CCO)c1nc(N)nc2cn(Cc3ccc(CNC4CCN(CCOC)CC4)c4cccnc34)nc12 [Compound 66] | Criterion not met |
| CCCCN(CCO)c1nc(N)nc2cn(Cc3c(F)cc(CNCC4(CO)CC4)cc3OC)nc12 [Compound 92] | Criterion not met |

----------
- target.or.system: human TLR8 (hTLR8) (Homo sapiens, UniProt Q9NR97)
- procedure.details: Human TLR8 agonist activity assay (measured in a similar manner)
- run.parameters: HEK-Blue TLR cells, SEAP reporter, measured in a similar manner to TLR7; some values average of multiple measurements
pEC50: −log10 of the molar value.
Tick TRUE if pEC50 is 6 or greater. Tick FALSE if pEC50 is less than 6.

| compound | category |
| --- | --- |
| CCCCN(CCO)c1nc(N)nc2cn(Cc3c(F)cc(CN[C@H]4C[C@H](O)C4)cc3OC)nc12 | FALSE |
| CCCCN(CCO)c1nc(N)nc2cn(Cc3ccc(CN4CC(CCOC)C4)c4cccnc34)nc12 | TRUE |
| CCCCN(CCO)c1nc(N)nc2cn(Cc3c(F)cc(CN4CC(OC)C4)cc3OC)nc12 | TRUE |
| CCCCN(CCO)c1nc(N)nc2cn(Cc3ccc(CN4CCCNCC4)cc3OC)nc12 | FALSE |
| CCCCN(CCO)c1nc(N)nc2cn(Cc3ccc(CNC4CCOC(C)(C)C4)cc3OC)nc12 (single isomer, unassigned) [Compound 112] | TRUE |
| CCCCN(CCO)c1nc(N)nc2cn(Cc3ccc(CN[C@@H]4CCOC4)c4c3OCCC4)nc12 | TRUE |
